Please respond with reported IC50 for every item in the list.
- assayed system: Interleukin-23 receptor (Homo sapiens)
- Sequence (Q5VWK5 whole entry): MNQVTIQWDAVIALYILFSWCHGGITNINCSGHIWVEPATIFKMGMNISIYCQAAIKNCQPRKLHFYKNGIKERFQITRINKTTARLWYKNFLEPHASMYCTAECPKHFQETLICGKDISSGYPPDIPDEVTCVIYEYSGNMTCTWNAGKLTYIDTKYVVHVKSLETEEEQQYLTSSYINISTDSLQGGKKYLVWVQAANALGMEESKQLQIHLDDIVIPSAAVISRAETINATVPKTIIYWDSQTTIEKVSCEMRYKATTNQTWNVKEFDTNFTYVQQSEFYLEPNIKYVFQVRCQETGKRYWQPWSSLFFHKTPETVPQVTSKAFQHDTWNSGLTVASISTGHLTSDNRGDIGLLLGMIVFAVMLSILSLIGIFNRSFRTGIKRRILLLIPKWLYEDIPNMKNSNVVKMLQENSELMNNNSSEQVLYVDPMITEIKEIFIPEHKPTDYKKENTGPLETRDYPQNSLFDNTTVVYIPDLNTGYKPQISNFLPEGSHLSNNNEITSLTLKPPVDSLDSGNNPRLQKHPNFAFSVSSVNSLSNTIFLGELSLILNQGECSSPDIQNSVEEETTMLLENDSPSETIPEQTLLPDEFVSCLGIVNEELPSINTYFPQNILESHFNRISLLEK
- assay method text: Inhibition of interleukin-23 binding to human interleukin-23 receptor incubated for 2 hrs by competitive binding ELISA

>  <compound>
CC(=O)NC1CCC/C=C\CCC(C(=O)N[C@@H](Cc2ccc(O)cc2)C(=O)N[C@@H](Cc2c[nH]c3ccccc23)C(=O)N[C@@H](CCCNC(=N)N)C(=O)N[C@@H](CCCCN)C(=O)N[C@@H](Cc2ccccc2)C(=O)NCC(=O)NCCOCC(=O)N[C@H](CCCCN)C(N)=O)NC(=O)[C@H](CCC(N)=O)NC(=O)[C@H](Cc2c[nH]c3ccccc23)NC(=O)[C@H]([C@@H](C)O)NC(=O)[C@H](CCCNC(=N)N)NC1=O (stereo partly drawn)

>  <assayed system>
Interleukin-23 receptor (Homo sapiens)

>  <reported measurement>
1 to 10 µM

$$$$

// batch mode: one IC50 value per listed entry
1. COc1ccc(C[C@H](NC(=O)[C@@H]2CSCC[C@H](NC(C)=O)C(=O)N[C@@H](CCC(N)=O)C(=O)N[C@@H]([C@@H](C)O)C(=O)N[C@@H](Cc3c[nH]c4ccccc34)C(=O)N[C@@H](CCC(N)=O)C(=O)N2)C(=O)N[C@@H](Cc2c[nH]c3ccccc23)C(=O)N[C@@](C)(CCCCN)C(=O)N[C@@H](CCC(=O)O)C(=O)N[C@@H](CC(N)=O)C(=O)NCC(N)=O)cc1
2. CC(=O)N[C@@H](CS)C(=O)N[C@@H](CCC(N)=O)C(=O)N[C@H](C(=O)N[C@@H](Cc1c[nH]c2ccccc12)C(=O)N[C@@H](CCC(N)=O)C(=O)N[C@@H](CS)C(=O)N[C@@H](Cc1ccc(O)cc1)C(=O)N1Cc2ccccc2C[C@H]1CC(=O)N[C@@H](CCCNC(=N)N)C(=O)N[C@H](C(=O)N[C@@H](CC(N)=O)C(=O)NCC(=O)NCCOCC(=O)N[C@H](CCCCN)C(N)=O)C(C)C)[C@@H](C)O

1. 0.01 to 0.025 µM
2. > 30 µM
